target: human NaV 1.8 (Homo sapiens, UniProt Q9Y5Y9); experiment: E-VIPR assay detecting and measuring NaV inhibition properties; format: cell-based; settings: HEK cells expressing truncated human NaV 1.8; no human serum; read-out: IC50 in the E-VIPR Assay
Sequence (Q9Y5Y9 126-399 limits assumed): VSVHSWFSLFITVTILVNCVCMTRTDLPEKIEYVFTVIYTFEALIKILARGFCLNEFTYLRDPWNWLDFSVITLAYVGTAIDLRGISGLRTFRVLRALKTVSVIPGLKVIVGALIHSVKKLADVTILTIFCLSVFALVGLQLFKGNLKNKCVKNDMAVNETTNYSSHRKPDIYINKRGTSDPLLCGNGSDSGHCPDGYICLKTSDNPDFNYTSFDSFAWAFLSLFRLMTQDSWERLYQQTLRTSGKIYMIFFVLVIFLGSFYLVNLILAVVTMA
Sequence (Q9Y5Y9 660-890 limits assumed): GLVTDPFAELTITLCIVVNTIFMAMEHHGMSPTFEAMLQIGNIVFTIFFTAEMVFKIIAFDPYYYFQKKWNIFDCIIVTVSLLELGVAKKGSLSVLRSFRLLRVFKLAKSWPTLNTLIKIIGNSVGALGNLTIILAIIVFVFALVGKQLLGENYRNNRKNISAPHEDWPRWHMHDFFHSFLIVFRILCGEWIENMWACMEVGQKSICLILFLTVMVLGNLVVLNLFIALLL
Sequence (Q9Y5Y9 1148-1722 limits assumed): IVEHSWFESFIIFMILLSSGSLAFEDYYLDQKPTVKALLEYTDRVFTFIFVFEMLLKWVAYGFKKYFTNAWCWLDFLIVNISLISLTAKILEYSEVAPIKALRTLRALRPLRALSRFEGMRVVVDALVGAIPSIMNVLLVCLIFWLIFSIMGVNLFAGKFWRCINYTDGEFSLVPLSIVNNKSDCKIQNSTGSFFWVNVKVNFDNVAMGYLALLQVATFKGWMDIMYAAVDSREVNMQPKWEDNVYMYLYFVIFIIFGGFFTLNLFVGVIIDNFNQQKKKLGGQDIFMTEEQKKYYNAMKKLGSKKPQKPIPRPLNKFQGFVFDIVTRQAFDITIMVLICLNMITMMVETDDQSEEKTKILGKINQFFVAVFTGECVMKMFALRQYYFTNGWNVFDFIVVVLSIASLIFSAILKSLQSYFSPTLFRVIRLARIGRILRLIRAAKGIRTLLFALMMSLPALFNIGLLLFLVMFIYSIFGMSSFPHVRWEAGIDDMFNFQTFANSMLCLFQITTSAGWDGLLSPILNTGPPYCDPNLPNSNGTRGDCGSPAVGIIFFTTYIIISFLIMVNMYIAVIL
pIC50: −log10 of the molar value.
Measured pIC50 values are reported for all entries that follow.
metricName: pIC50

> print(dat)
                                    compound  metricname  readoutvalue
 1  CNCc1c([C@H]2[C@H](C(=O)Nc3cn(C(F)F)nc3C)O[C@@](C)(C(F)(F)F)[C@H]2C)ccc(F)c1F       pIC50  6.00 to 7.00
 2  Cc1cn(C)c(COc2c([C@H]3[C@H](C(=O)Nc4cccnc4)O[C@@](C)(C(F)(F)F)[C@H]3C)ccc(F)c2F)n1       pIC50  7.00 to 8.00
 3  COc1c(C2C(C(=O)Nc3cccnc3)OC(C)(C(F)(F)F)C2C)ccc(F)c1F (single isomer, unassigned) [Compound 30]       pIC50        > 8.00
 4  COCCNCc1cc(NC(=O)C2OC(C)(C(F)(F)F)C(C)C2c2ccc(F)c(F)c2OC)ccn1 (centres unmarked) [Compound 59]       pIC50        ≤ 6.00
 5  COc1c([C@H]2[C@H](C(=O)Nc3cn(S(C)(=O)=O)nc3C)O[C@@](C)(C(F)(F)F)[C@H]2C)ccc(F)c1F       pIC50        > 8.00
 6  CCS(=O)(=O)c1cc(NC(=O)[C@@H]2O[C@@](C)(C(F)(F)F)[C@@H](C)[C@H]2c2ccc(F)c(F)c2OC(F)F)ccn1 (single isomer, unassigned)       pIC50        > 8.00
 7  COc1c([C@H]2[C@H](C(=O)Nc3ccnc(N4C(=O)[C@H]5C[C@@H]4CN5C)c3)O[C@@](C)(C(F)(F)F)[C@H]2C)ccc(F)c1F       pIC50  7.00 to 8.00
 8  C[C@H]1[C@@H](c2ccc(F)c(F)c2OC(F)F)[C@H](C(=O)Nc2ccc(C(N)=O)nc2)O[C@@]1(C)C(F)(F)F (single isomer, unassigned)       pIC50        > 8.00
 9  Cc1c(F)ccc([C@H]2[C@H](C(=O)Nc3ccn(C)c(=O)c3)O[C@@](C)(C(F)(F)F)[C@H]2C)c1OC(F)F (stereo in doubt)       pIC50        > 8.00
10  COc1c([C@H]2[C@H](C(=O)Nc3ccnc(C4COCCN4C)c3)O[C@@](C)(C(F)(F)F)[C@H]2C)ccc(F)c1F (single isomer, unassigned)       pIC50        > 8.00
11  COc1c([C@H]2[C@H](C(=O)NC(C)c3cnn(C)c3)O[C@@](C)(C(F)(F)F)[C@H]2C)ccc(F)c1F (some centres unmarked)       pIC50        ≤ 6.00

These measurements were taken from patent US20240368135A1.
